Test: protein stability index of a GFP-peptide fusion (GPS, HEK-293T) (PSI 1-6); higher = more stable;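 also: 24-mer peptide tiles fused after GFP, lentivirally expressed, FACS-sorted into six equal bins by GFP/DsRed ratio, decoded by Illumina sequencing, PSI is the read-weighted mean bin number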
Conditions: treatment: DMSO; c terminus: a fixed tail appended
Consider the following sequences; for each one, report its protein stability index.
Just the number, please, no unit after it.

Noted for GKYNAMVLELLGPSLEDLFDLCDR [CSNK1G3] : its protein stability index reads 2.92

Quick note, protein stability index for ENYHKLRRSSSKCIHDHHCGSQLS [NETO1] landed at 3.1

Short answer for PEISRIIVDPTTGKRYCRGKVLGK [PLK2] : protein stability index was 3.9

Notebook: TNSDTPTSFNHMDSDKLSGLWSRI [TOR1AIP2] , protein stability index read as 3.21

The sequence listed as WGCSCCPPETKHQALSGTPKKGPA [TSPAN10] shows protein stability index equal to 4.13

Note to self: protein stability index recorded for DHRGRMVKHQCCPGCGYFCTAGNF [EHMT1] was 2.79

VTAGCGFGKDFRKGLLKKGACYGD [PPTC7] yielded protein stability index of 2.79

For this sequence ( QLATSSFLLFLLTGIVSVAFLLLP [MOSPD3] ), measured protein stability index is 3.5

AVIYLKKTPEEAYRALLSGSNPPY [CDC14A] yielded protein stability index of 2.21

# sequence LLQCLEDLDANLRKLNSRLFVIRG [CRY1] ; its protein stability index = 2.67

// sample YDIEVNTRRAQADLAYQLQVAKTK [FLOT1] , its protein stability index was 4.35

Just so you know, measured protein stability index for CSSSGKDGNLCLHVPNPPSGISFP [HESX1] came out at 3.15

The sequence listed as VGLAVVNGQLMAVGGFDGTTYLKT [KLHL20] shows protein stability index equal to 2.69

Data origin: the supplement of paper PMC10567573
